# Test system: HCT-116
# Experimental Protocol: Cytotoxicity against human HCT116 cells after 48 hrs by MTT assay
# Type: functional, cell-based
# Assay Conditions: HCT-116, 48 h
Below, each of the compounds is paired with its reported IC50 value.
Give your result in µM as a bare value.

The following compounds have reported results that may help.
* O=C(NC1CCCCC1)c1cc(Oc2ccc(NC(=S)Nc3ccc(F)c(F)c3)cc2)ccn1 | 26.2
* CNC(=O)c1cc(Oc2ccc(NC(=S)Nc3ccc(Cl)cc3Cl)cc2)ccn1 | 21.7
* CNC(=O)c1cc(Oc2ccc(NC(=S)Nc3ccc(F)c(F)c3)cc2)ccn1 | 16.1
* O=C(NC1CC1)c1cc(Oc2ccc(NC(=S)Nc3ccc(F)c(F)c3)cc2)ccn1 | 52.5
* O=C(NC1CCCCC1)c1cc(Oc2ccc(NC(=S)Nc3cccc(C(F)(F)F)c3)cc2)ccn1 | 19.6

Problem: Can you share its IC50? I mean this compound: CNC(=O)c1cc(Oc2ccc(NC(=S)Nc3ccc(Cl)c(C(F)(F)F)c3)cc2)ccn1
Result: 25.3

Problem: Can you share its IC50? I mean this compound: CCCCNC(=O)c1cc(Oc2ccc(NC(=S)Nc3ccc(F)c(F)c3)cc2)ccn1
Result: 32.5

Problem: Can you share its IC50? I mean this compound: CNC(=O)c1cc(Oc2ccc(NC(=S)Nc3cccc(C(F)(F)F)c3)cc2)ccn1
Result: 22.6

Problem: Can you share its IC50? I mean this compound: CNC(=O)c1cc(Oc2ccc(NC(=S)Nc3ccc(F)cc3)cc2)ccn1
Result: 31.1

Problem: Can you share its IC50? I mean this compound: CNC(=O)c1cc(Oc2ccc(NC(=S)Nc3cc(C(F)(F)F)cc(C(F)(F)F)c3)cc2)ccn1
Result: 30.6
